# System: Escherichia coli TOP10;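 note: peptides expressed intracellularly from a pBAD plasmid library in pooled LB shake-flask culture, induced with 0.3% L-arabinose, DNA abundance read by NGS, three biological replicates, DESeq2 with apeglm shrinkage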
# experiment_summary: shrunken log2 fold change of peptide-encoding DNA abundance (4.5 h post-induction vs induction); higher = less antimicrobial activity (less host growth inhibition)
# applied_conditions: time post-induction: 4.5 h; library: site-saturation at positions 5, 18, 19, 20
assay_metric: shrunken log2 fold change
API note: the answer field is a bare number with no unit suffix.

# annotated cases, reported shrunken log2 fold change shown
{"columns": ["sequence_record", "shrunken log2 fold change"],
 "data": [
  ["RRIRKRPPRLPRPRPRPQNGPRP", -0.178],
  ["RRIRWRPPRLPRPRPRPKLFPRP", 0.589]
]}

Qu. Look up shrunken log2 fold change for this sequence: "RRIRKRPPRLPRPRPRPMWGPRP"
Ans. -0.0954

Qu. What do you have for "RRIRQRPPRLPRPRPRPMAGPRP" ?
Ans. 0.132

Qu. What do you have for "RRIRSRPPRLPRPRPRPVVKPRP" ?
Ans. -0.14

Qu. What do you have for "RRIRQRPPRLPRPRPRPCVKPRP" ?
Ans. -0.0496

Qu. What do you have for "RRIRPRPPRLPRPRPRPKAMPRP" ?
Ans. 0.000243

Qu. What do you have for "RRIRGRPPRLPRPRPRPNDFPRP" ?
Ans. -0.000929
